Source listed as paper PMC12142043.

test system: SARS-CoV-2 (USA-WA1/2020) in Calu-3 cells; type: cell-based; settings: low dose (100 nM), Calu-3, 48 h
reported.property: dsRNA signal, AU Low (AU)
// units = AU; emit number, no label

Entry under review: `COc1cc(N2CCC(N)CC2)ccc1Nc1ncc(Cl)c(-c2c[nH]c3ccccc23)n1` . Reported dsRNA signal, AU Low?
40804.7

Entry under review: `CCS(=O)(=O)c1cccc(-c2cc(C(=O)NC3CCN(C)CC3)c(C)c3[nH]c4ncc(C)cc4c23)c1` . Reported dsRNA signal, AU Low?
61332.6

Entry under review: O=C(O)CCCCC(CCSCc1ccccc1)SCc1ccccc1 (stereo not shown) . Reported dsRNA signal, AU Low?
25399.4

Entry under review: `Clc1ccc(C2(c3ccc(-c4cn[nH]c4)cc3)CCNCC2)cc1` . Reported dsRNA signal, AU Low?
6554.9

Entry under review: `C=CC(=O)N1CCC[C@@H](n2nc(-c3ccc(Oc4ccccc4)cc3)c3c(N)ncnc32)C1` . Reported dsRNA signal, AU Low?
17695.2

Entry under review: `c1cncc(CN2CCC(n3ncc4c(N5CCOCC5)nc(-c5ccc6[nH]ccc6c5)nc43)CC2)c1` . Reported dsRNA signal, AU Low?
67106.4

Entry under review: CCN1CCN(Cc2ccc(Nc3ncc(F)c(-c4cc(F)c5nc(C)n(C(C)C)c5c4)n3)nc2)CC1 [LY2835219 free base] . Reported dsRNA signal, AU Low?
26611.9

Entry under review: `COc1cc(O)c2c(c1)oc(=O)c1c3cc(O)c(O)cc3oc21` . Reported dsRNA signal, AU Low?
16105.5

Entry under review: N#CC(c1ccnc(NCCc2cccnc2)n1)c1nc2ccccc2s1 (stereo not shown) . Reported dsRNA signal, AU Low?
6237.2

Entry under review: `Cc1ccc([N+](=O)[O-])cc1S(=O)(=O)N(C)/N=C/c1cnc2ccc(Br)cn12` . Reported dsRNA signal, AU Low?
3754.5

Entry under review: `COc1cc(N2CCOCC2)ccc1NC(=O)c1csc(-c2cccnc2)n1` . Reported dsRNA signal, AU Low?
7334.0

Entry under review: `N#CC1(c2ccc(NC(=O)c3cccnc3NCc3ccncc3)cc2)CCCC1` . Reported dsRNA signal, AU Low?
36614.7

Entry under review: `Nc1nccc(-c2c(-c3ccc(F)cc3)ncn2C2CCCCC2)n1` . Reported dsRNA signal, AU Low?
18716.0

Entry under review: CC(C)=CCC[C@](C)(O)[C@H]1CC[C@]2(C)[C@@H]1[C@H](O)C[C@@H]1[C@@]3(C)CC[C@H](O[C@@H]4O[C@H](CO)[C@@H](O)[C@H](O)[C@H]4O)C(C)(C)[C@@H]3CC[C@]12C [Ginsenoside Rh2] . Reported dsRNA signal, AU Low?
30569.1

Entry under review: `CO[C@H]1C[C@@H]2CC[C@@H](C)[C@@](O)(O2)C(=O)C(=O)N2CCCC[C@H]2C(=O)O[C@H]([C@H](C)C[C@@H]2CC[C@@H](OP(C)(C)=O)[C@H](OC)C2)CC(=O)[C@H](C)/C=C(\C)[C@@H](O)[C@@H](OC)C(=O)[C@H](C)C[C@H](C)/C=C/C=C/C=C/1C` . Reported dsRNA signal, AU Low?
31512.5

Entry under review: CCOC(=O)c1cc(O)c(O)c(O)c1 [Ethyl gallate] . Reported dsRNA signal, AU Low?
60976.1

Entry under review: `Oc1ccc(/C=C/c2cc(O)cc(O)c2)cc1` . Reported dsRNA signal, AU Low?
6902.6

Entry under review: CC1=C(C(=O)Nc2cc3cn[nH]c3cc2F)C(c2ccc(C(F)(F)F)cc2)CC(=O)N1 (stereo not shown) [GSK429286A] . Reported dsRNA signal, AU Low?
34075.4

Entry under review: `CO[C@H]1C[C@@H]2CC[C@@H](C)[C@@](O)(O2)C(=O)C(=O)N2CCCC[C@H]2C(=O)O[C@H]([C@H](C)C[C@@H]2CC[C@H](n3cnnn3)[C@H](OC)C2)CC(=O)[C@H](C)/C=C(\C)[C@@H](O)[C@@H](OC)C(=O)[C@H](C)C[C@H](C)/C=C/C=C/C=C/1C` . Reported dsRNA signal, AU Low?
1864.8

Entry under review: `COC(=O)c1c2c(c3ccccc3c1O)OC(C)(C)C=C2` . Reported dsRNA signal, AU Low?
5157.1

Entry under review: `COCC(=O)NC/C=C/c1ccc2ncnc(Nc3ccc(Oc4ccc(C)nc4)c(C)c3)c2c1` . Reported dsRNA signal, AU Low?
29983.8

Entry under review: `CS(=O)(=O)N1CCN(Cc2cc3nc(-c4cccc5[nH]ncc45)nc(N4CCOCC4)c3s2)CC1` . Reported dsRNA signal, AU Low?
57346.3

Entry under review: `c1ccc(-c2oc3ncnc(NC[C@@H]4CCCO4)c3c2-c2ccccc2)cc1` . Reported dsRNA signal, AU Low?
4414.3

Entry under review: Cl.Cl.O=S(=O)(NCCNC/C=C/c1ccc(Br)cc1)c1cccc2cnccc12 [H 89 2HCl] . Reported dsRNA signal, AU Low?
56279.7

Entry under review: `C[C@@H](Oc1ccc2[nH]nc(/C=C/c3cnn(CCO)c3)c2c1)c1c(Cl)cncc1Cl` . Reported dsRNA signal, AU Low?
3320.6
